tested on: HS 578T breast; assay: NCI tumour cell line growth inhibition, 48 h; in the data active means GI50 below about 0.43 µM; inactive means the rest
Give your call using only these classes: 1 (active), 0 (inactive)

• O=C1NC(=O)C(c2ccccc2Cl)=C1Nc1cc(Cl)c(O)c(Cl)c1 = 0
• Cc1ccc(NC2=C(Cl)C(=O)N(Cc3ccc(Cl)cc3)C2=O)cc1O = 0
• CC1=C(C(=O)Nc2ccc(Cl)c(Cl)c2)C(c2cccc(Cl)c2)NC(=O)N1 (stereo unspecified) = 0
• Cc1nc2sc(C(=O)Nc3cccc4ccccc34)c(N)c2cc1C(O)c1ccccc1 (stereo unspecified) = 1

Which result was noted for this molecule in the test: CCC(=O)Nc1ccccc1C#C/C=C\C#Cc1ccccc1SC
0

Which result was noted for this molecule in the test: C/C(=N\Nc1cc(C)c2ccccc2n1)c1ccccn1
0

----------
test system: CCRF-CEM leukemia; assay: NCI tumour cell line growth inhibition, 48 h
Parameter: TGI. Scope: all listed entries.

Worked examples follow.
- COC(=O)CC[C@]1(C)O[C@H]2[C@H]([C@@H](C)CCCC(C)=O)OC(=O)[C@@H]2C[C@H]1O: > 100 µM
- Cc1ccccc1NC(=O)c1c(C)oc2c1C(=O)c1ccccc1C2=O: 48.1 µM

Kindly indicate its recorded TGI. Item: COc1ccc(NC([Se])=NC23CC4CC(CC(C4)C2)C3)cc1
4.97 µM

Kindly indicate its recorded TGI. Item: CCO/C=N\c1c(C#N)c(-c2ccc(Cl)cc2)cn1-c1ccc(C)cc1
> 100 µM

Kindly indicate its recorded TGI. Item: O=C1c2ccccc2C(=O)N1CC1S(=O)(=O)OCCOS1(=O)=O
> 100 µM

Kindly indicate its recorded TGI. Item: CC(=C/C=C/C=C(C)\C=C\C=C(\C)C(=O)O)/C=C/C=C(/C)C(=O)O
> 100 µM

Kindly indicate its recorded TGI. Item: Cc1cc(C)c(S(=O)(=O)N2CCCN(S(=O)(=O)c3c(C)cc(C)cc3C)OCCCO2)c(C)c1
> 100 µM

Kindly indicate its recorded TGI. Item: CCCCCCCCCCCCN1[C@H]2CCC[C@H]2C(O)[C@@H]2CCC[C@@H]21 (stereo not given in full)
> 100 µM

Kindly indicate its recorded TGI. Item: C#CCOCn1cnc2c(Sc3c([N+](=O)[O-])ncn3C)ncnc21
> 100 µM

Kindly indicate its recorded TGI. Item: CCOC(=O)/C(=C\c1ccc(N(CCC#N)CCC#N)cc1)NC(=O)c1cc([N+](=O)[O-])ccc1Cl
> 100 µM

----------
tested on: PC-3 prostate; test: NCI tumour cell line growth inhibition, 48 h; in the data active = GI50 below about 0.43 µM; inactive = the rest
Give your call using only these classes: active, inactive

- COc1ccc(-c2oc(=O)ccc2-c2cc(OC)c(OC)c(OC)c2)cc1O: inactive
- Cc1cc(O)cc2c1[C@]1(C)CCC3C(C)(C)CCC[C@]3(C)[C@H]1C2 (stereo not given in full): inactive
- Cc1nc2sc(C(=O)Nc3cccc4ccccc34)c(N)c2cc1C(O)c1ccccc1 (stereo not given): active
- COc1ccc(/C(COc2ccc3c(=O)c(-c4ccccc4)coc3c2)=N\O)cc1: inactive

Continue with the next compound.
Which result was noted for this compound in the test: COc1cc(-c2ccc(-c3ccc(C(=N)N)nc3)s2)cc(OC)c1OC
inactive

----------
Parameter: GI50. Scope: all listed entries.
tested on: HS 578T breast; assay: NCI tumour cell line growth inhibition, 48 h

Kindly indicate its recorded GI50. Item: COc1cccc(/C=C/[N+](=O)[O-])c1
15.8 µM

----------
tested on: MALME-3M melanoma; experiment: NCI tumour cell line growth inhibition, 48 h
Readout: TGI

Worked examples follow.
• c1ccc(C2=NCCN2)c(C2=NCCN2)c1 = > 100 µM
• O=P1(Oc2ccc(Cl)cc2Cl)Oc2ccc3ccccc3c2-c2c(ccc3ccccc23)O1 = 46.4 µM

Print MALME-3M melanoma TGI for CC(=O)O/C=C1/C[C@H]2[C@@H]3CCC4CC(C(C)=O)CC[C@]4(C)[C@H]3CC[C@]2(C)C1=O (some centres undefined) .
> 100 µM

Print MALME-3M melanoma TGI for Oc1c(Cl)c(Cl)c(O)c(CCNc2ccc3ncccc3c2)c1Cl .
35.3 µM

Print MALME-3M melanoma TGI for NC[C@H]1Nc2ccccc2[C@@H](O)C1O (some centres undefined) .
> 100 µM

----------
system: UACC-257 melanoma; experiment: NCI tumour cell line growth inhibition, 48 h
Parameter: TGI. Scope: all listed entries.
Report the figure in µM without appending any unit label.

* C=C(C)[C@@H]1CC[C@]2(C(=O)O)CC[C@]3(C)[C@H](CC[C@@H]4[C@@]5(C)CCC(NC(=O)c6cccc(OC(C)=O)c6OC(C)=O)C(C)(C)[C@@H]5CC[C@]43C)[C@@H]12 (some centres not stated) | 0.78

Kindly indicate its recorded TGI. Item: COc1cccc(/C=C2\CCCc3ccccc3C2=O)c1
33.2

Kindly indicate its recorded TGI. Item: Cc1ccc2c(-c3ccnc(Nc4ccccc4)n3)c(-c3ccc(F)cc3)nn2n1
15.1

Kindly indicate its recorded TGI. Item: COc1ccc(-c2c3c(cc4cc5c(cc24)OCO5)C(=O)OC3)cc1OC
5.05

----------
tested on: NCI-H226 lung; assay: NCI tumour cell line growth inhibition, 48 h
Readout: TGI

Worked examples follow.
* COc1cccc2c1CCc1c(-c3ccc(F)cc3)cc(-c3ccc4ccccc4n3)nc1-2 | > 100 µM
* CCCC[C@H]1[C@@H](OCOc2ccccc2)COC(=O)N1[C@H](C)c1ccccc1 | > 100 µM
* O=C1Cc2c([nH]c3ccccc23)-c2ccccc2N1 | > 100 µM

Kindly indicate its recorded TGI. Item: CCC(C(=O)C(=O)C(CC)P1(=O)OC(C)(C)CN1C(C)(C)C)P1(=O)OC(C)(C)CN1C(C)(C)C (stereo unspecified)
> 100 µM

Kindly indicate its recorded TGI. Item: O=C(Nc1ccccc1)c1cc2ccccc2c(N=Nc2ccc([N+](=O)[O-])cc2)c1O
> 100 µM

Kindly indicate its recorded TGI. Item: NC[C@H]1Nc2ccccc2[C@@H](O)C1O (stereo partly specified)
> 100 µM

Kindly indicate its recorded TGI. Item: c1ccc2c(NCCCCCCNc3c4ccccc4nc4ccccc34)c3ccccc3nc2c1
3.54 µM

Kindly indicate its recorded TGI. Item: COc1ccc(-c2oc(=O)ccc2-c2cc(OC)c(OC)c(OC)c2)cc1O
> 96 µM

Kindly indicate its recorded TGI. Item: O=C(Nc1ccc(Cl)cc1Cl)C1C(=O)C(=O)N(c2ccc(Cl)cc2Cl)C1=O (stereo unspecified)
84.1 µM

Kindly indicate its recorded TGI. Item: C[C@]12CC[C@@H]3c4cc(-c5ccc(F)cc5)c(O)cc4CC[C@H]3[C@@H]1CC[C@@H]2O
30.4 µM

Kindly indicate its recorded TGI. Item: Cc1cc(O)cc2c1[C@]1(C)CCC3C(C)(C)CCC[C@]3(C)[C@H]1C2 (stereo partly specified)
41.4 µM

----------
tested on: UACC-257 melanoma; assay: NCI tumour cell line growth inhibition, 48 h
Readout: TGI (µM)
Report the figure in µM without appending any unit label.

* CNC/C(Cl)=N/S(=O)(=O)c1ccc(C)cc1 | 25.4
* COc1cccc(C2c3cc4c(cc3OC(N3CCOCC3)C2C)OCO4)c1OC (stereo unspecified) | 48.8

Kindly indicate its recorded TGI. Item: O=C(c1c(F)c(F)c(F)c(F)c1F)N1CCN(C(=O)c2c(F)c(F)c(F)c(F)c2F)C1=S
22

----------
Parameter: TGI. Scope: all listed entries.
test system: DMS 114 small cell lung; experiment: NCI tumour cell line growth inhibition, 48 h
Report the figure in µM without appending any unit label.

Worked examples follow.
• CC(=O)NC1=C(NC(C)(C)C)C(=O)c2ccccc2C1=O = 54.3
• C[C@]12CC[C@H](OC3OC(CO)C(O)C(O)C3O)C[C@H]1CC[C@@H]1[C@@H]2CC[C@]2(C)[C@@H](C3=CCOC3=O)CC[C@]12O (stereo not given in full) = 50
• C=C(C#N)C1OCC2OC(C)(C)OC21 (stereo not given) = 57.2
• COc1cc2cc3c4cc(OC)c(OC)cc4cc[n+]3cc2cc1OC = 6.6

Shifting focus to the compound that follows.
Kindly indicate its recorded TGI. Item: CN(C)CCNC(=O)c1cccc2nc3cc(Cl)ccc3nc12
6.69

----------
test system: UACC-257 melanoma; test: NCI tumour cell line growth inhibition, 48 h
Parameter: TGI. Scope: all listed entries.
Report the figure in µM without appending any unit label.

Worked examples follow.
• Cc1cc(-c2nc3sccn3c2/C=N/N=C(N)N)c(C)s1 = 36.2
• CC(C)C[C@H](NC(=O)Cn1ccc(NCc2ccccc2)cc1=O)B(O)O = 4.73
• C=C1C(=O)O[C@H]2[C@H]1CC/C(COC(=O)C(=O)c1cn(C)c3ccc(Cl)cc13)=C\CC[C@@]1(C)O[C@@H]21 = 3.55
• C[C@]12CC[C@@H]3c4cc(-c5ccc(F)cc5)c(O)cc4CC[C@H]3[C@@H]1CC[C@@H]2O = 29.6
• Cc1occc1C(=S)Nc1ccc(Cl)c(C(=O)OC(C(C)C)C(C)C)c1 = 19.2

Kindly indicate its recorded TGI. Item: CC1=C(C(=O)Nc2ccc(Cl)c(Cl)c2)C(c2cccc(Cl)c2)NC(=O)N1 (centres undefined)
25.6

Kindly indicate its recorded TGI. Item: CC1(C)CCc2c(c(N=Nc3ccc(S(N)(=O)=O)cc3)c3ccccc3c2O)O1
21.3

Kindly indicate its recorded TGI. Item: CCCCCCCCCCCCCCCCCCN(C)C(COC)COP(=O)([O-])OCC[N+](C)(C)C (centres undefined)
29.5

Kindly indicate its recorded TGI. Item: CC1=CC[C@H](C(C)C)C(C(O)[C@@H](C)O[Si](c2ccccc2)(c2ccccc2)C(C)(C)C)C1=O (some centres undefined)
31.5

Kindly indicate its recorded TGI. Item: COC(=O)c1ccc(NC(=O)O/N=C(\Cl)C(C)C)cc1
28.6
